Target: GID4 (Homo sapiens, UniProt Q8IVV7)
Construct: residues 116-300; N-terminal Strep-SUMO-3C-6xHis-Avi, HRV-3C cleaved, Avi-tag kept and biotinylated; E. coli BL21(DE3)
Sequence (Q8IVV7 116-300): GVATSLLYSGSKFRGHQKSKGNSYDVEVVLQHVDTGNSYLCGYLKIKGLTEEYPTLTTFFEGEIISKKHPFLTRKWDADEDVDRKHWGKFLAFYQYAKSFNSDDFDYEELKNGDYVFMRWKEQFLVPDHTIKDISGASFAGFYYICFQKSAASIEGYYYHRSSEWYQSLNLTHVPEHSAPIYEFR
Assay: biochemical
Parameters: SPR binding affinity to immobilized biotinylated GID4
Conditions: read-out: KD by SPR
pKd: −log10 of the molar value.
Rule: met for pKd not less than 7, not met for anything less.

Request: Hello, I need to know if CNC(=O)c1cc(-c2cc(F)cc(N=C(N)N3CCC(C)(C)CC3)c2)oc1C has measured pKd not below 7. Thanks!
Response: not met

Request: Hello, I need to know if COCCOCCC1CCN(C(=O)c2cc(-c3cc(F)cc(N=C(N)N4CCC(C)(C)CC4)c3)oc2C)CC1 has measured pKd not below 7. Thanks!
Response: met

Request: Hello, I need to know if Cc1oc(-c2cc(F)cc(N=C(N)N3CCC(C)(C)CC3)c2)cc1C(=O)Nc1ccccc1 has measured pKd not below 7. Thanks!
Response: not met
